# System under test: He-PTP (Homo sapiens, UniProt P35236)
# Sequence (P35236 whole entry, species assumed): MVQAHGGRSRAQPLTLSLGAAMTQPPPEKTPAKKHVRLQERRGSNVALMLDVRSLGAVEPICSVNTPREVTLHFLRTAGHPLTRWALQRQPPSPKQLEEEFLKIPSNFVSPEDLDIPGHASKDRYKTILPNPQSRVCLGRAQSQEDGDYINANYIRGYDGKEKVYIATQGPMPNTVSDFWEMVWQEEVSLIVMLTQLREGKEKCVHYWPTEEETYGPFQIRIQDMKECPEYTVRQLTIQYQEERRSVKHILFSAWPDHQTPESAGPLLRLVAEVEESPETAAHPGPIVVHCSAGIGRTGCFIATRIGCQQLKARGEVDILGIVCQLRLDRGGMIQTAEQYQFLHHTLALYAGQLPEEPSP
# Protocol: PTP activity assay with pNPP, He-PTP
# Type: biochemical
Quantity measured: Ki

(Q) Given CCc1ccc(C(=O)NCCCC[C@H](NC(=O)[C@H](Cc2ccc(C(F)(F)P(=O)(O)O)cc2)NC(=O)[C@H](Cc2ccccc2)NC(=O)CO[C@H]2C[C@@H](C)CC[C@@H]2C(C)C)C(N)=O)cc1 , state its recorded Ki.
(A) > 1000 nM

###

# System under test: UniProt P17706
# Sequence (P17706 whole entry, species assumed): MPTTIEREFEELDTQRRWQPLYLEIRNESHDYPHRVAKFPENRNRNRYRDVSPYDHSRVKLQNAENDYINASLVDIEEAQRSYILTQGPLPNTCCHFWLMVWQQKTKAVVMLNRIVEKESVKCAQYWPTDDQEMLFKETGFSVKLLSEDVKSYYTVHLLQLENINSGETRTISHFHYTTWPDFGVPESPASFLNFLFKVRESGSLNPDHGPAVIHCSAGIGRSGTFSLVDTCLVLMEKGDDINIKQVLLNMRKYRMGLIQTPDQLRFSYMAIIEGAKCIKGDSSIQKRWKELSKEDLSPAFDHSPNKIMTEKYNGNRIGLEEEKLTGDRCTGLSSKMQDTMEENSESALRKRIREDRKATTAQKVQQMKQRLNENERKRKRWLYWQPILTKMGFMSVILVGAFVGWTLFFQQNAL
# Protocol: TC-PTP-catalyzed pNPP hydrolysis inhibition
# Format: biochemical
# Assay setup: read-out: IC50 for TC-PTP; pNPP 2 mM, pH 7.0, 25 °C
Non-standard residues stand in square brackets, D forms with d. Residues, ends and D or L forms follow the SMILES beside them. F2Pmp = N[CH](Cc1ccc(C(F)(F)P(=O)(O)O)cc1)C(=O)O
Quantity measured: pIC50
The value called pIC50 is obtained by taking minus log10 of the concentration in mol/L.

(Q) For the compound shown here, CC(=O)NCCCCC(NC(=O)C(Cc1ccc(C(F)(F)P(=O)(O)O)cc1)NC(C)=O)C(N)=O (stereo not drawn) [Compound 5] (Ac-[F2Pmp]-Lys(Ac)-NH2; configuration not given here) , give the reported pIC50.
(A) 5.70

(Q) Now try O=C(N[C@@H](Cc1ccc(C(F)(F)P(=O)(O)O)cc1)C(=O)O)OCC1c2ccccc2-c2ccccc21 [Fmoc-F2Pmp-OH, reference compound] .
(A) 4.70

The reported numbers originate from paper PMC2741613.
